Where these numbers come from: BigSolDB 2.1

- measurement setup: in methanol, 313.15 K
recorded metric: solubility (mole fraction)
One number for each entry.

Q: GET /values?readout=solubility (mole fraction)&item= Cc1cccc(C(=O)O)c1[N+](=O)[O-]
Result: 0.0223

====

- measurement setup: in methanol, 290.65 K
recorded metric: solubility (mole fraction)
One number for each entry.

Q: // returns reported solubility (mole fraction) for input Cc1cccc(C(=O)O)c1[N+](=O)[O-]
Result: 0.012

====

- measurement setup: in isopropanol, 313.15 K
recorded metric: solubility (mole fraction)
Answers are plain numbers.

Q: Record request: solubility (mole fraction) value, item Cc1cccc(C(=O)O)c1[N+](=O)[O-]
Result: 0.0198

====

- measurement setup: in methanol, 315.65 K
recorded metric: solubility (mole fraction)
Answers are plain numbers.

Q: // lookup solubility (mole fraction) for Cc1cccc(C(=O)O)c1[N+](=O)[O-]
Result: 0.0237

====

- measurement setup: in acetone, 283.15 K
recorded metric: solubility (mole fraction)

Q: Any idea what solubility (mole fraction) was measured for Cc1cccc(C(=O)O)c1[N+](=O)[O-] ?
Result: 0.0253

====

- measurement setup: in methanol, 293.15 K
recorded metric: solubility (mole fraction)
Answers are plain numbers.

Q: # query: solubility (mole fraction) of entry Cc1cccc(C(=O)O)c1[N+](=O)[O-]
Result: 0.0129

====

- measurement setup: in NMP, 288.15 K
recorded metric: solubility (mole fraction)
Numbers only.

Q: Given the compound Cc1cccc(C(=O)O)c1[N+](=O)[O-] , what is its reported solubility (mole fraction)?
Result: 0.0154

====

- measurement setup: in methanol, 310.65 K
recorded metric: solubility (mole fraction)
Answers are plain numbers.

Q: Which value of solubility (mole fraction) has been reported for Cc1cccc(C(=O)O)c1[N+](=O)[O-] in the records?
Result: 0.0209

====

- measurement setup: in NMP, 300.65 K
recorded metric: solubility (mole fraction)
Numbers only.

Q: If you can, please state the reported solubility (mole fraction) value of Cc1cccc(C(=O)O)c1[N+](=O)[O-] .
Result: 0.0234

====

- measurement setup: in acetone, 318.15 K
recorded metric: solubility (mole fraction)
Numbers only.

Q: Which solubility (mole fraction) reading was recorded for the molecule Cc1cccc(C(=O)O)c1[N+](=O)[O-] ?
Result: 0.0466

====

- measurement setup: in ethanol, 318.15 K
recorded metric: solubility (mole fraction)
Give bare numbers.

Q: Param item = Cc1cccc(C(=O)O)c1[N+](=O)[O-] ; retrieve measured solubility (mole fraction).
Result: 0.0296

====

- measurement setup: in NMP, 313.15 K
recorded metric: solubility (mole fraction)
One number for each entry.

Q: Requested field: solubility (mole fraction). Item: Cc1cccc(C(=O)O)c1[N+](=O)[O-]
Result: 0.0345

====

- measurement setup: in isopropanol, 303.15 K
recorded metric: solubility (mole fraction)
Numbers only.

Q: So what's the measured solubility (mole fraction) for this one? Cc1cccc(C(=O)O)c1[N+](=O)[O-]
Result: 0.0153

====

- measurement setup: in ethanol, 300.65 K
recorded metric: solubility (mole fraction)
Numbers only.

Q: // returns reported solubility (mole fraction) for input Cc1cccc(C(=O)O)c1[N+](=O)[O-]
Result: 0.0179

====

- measurement setup: in 1,4-dioxane, 308.15 K
recorded metric: solubility (mole fraction)
One number for each entry.

Q: Report solubility (mole fraction) for Cc1cccc(C(=O)O)c1[N+](=O)[O-] please.
Result: 0.0512

====

- measurement setup: in NMP, 303.15 K
recorded metric: solubility (mole fraction)
Answers are plain numbers.

Q: Returns the measured solubility (mole fraction) for the input molecule. Input: Cc1cccc(C(=O)O)c1[N+](=O)[O-]
Result: 0.0254

====

- measurement setup: in acetonitrile, 300.65 K
recorded metric: solubility (mole fraction)
Answers are plain numbers.

Q: # input compound: Cc1cccc(C(=O)O)c1[N+](=O)[O-] ; wanted: its solubility (mole fraction)
Result: 0.00788

====

- measurement setup: in isopropanol, 300.65 K
recorded metric: solubility (mole fraction)

Q: Suppose we examine the compound Cc1cccc(C(=O)O)c1[N+](=O)[O-] ; what solubility (mole fraction) value has been reported?
Result: 0.0145

====

- measurement setup: in NMP, 310.65 K
recorded metric: solubility (mole fraction)
One number for each entry.

Q: Need solubility (mole fraction) of Cc1cccc(C(=O)O)c1[N+](=O)[O-] , thanks.
Result: 0.032

====

- measurement setup: in isopropanol, 285.65 K
recorded metric: solubility (mole fraction)

Q: Reported solubility (mole fraction) for Cc1cccc(C(=O)O)c1[N+](=O)[O-] : what is it?
Result: 0.00946

====

- measurement setup: in n-propanol, 318.15 K
recorded metric: solubility (mole fraction)
Give bare numbers.

Q: Consider the compound Cc1cccc(C(=O)O)c1[N+](=O)[O-] and give its measured solubility (mole fraction).
Result: 0.0188

====

- measurement setup: in acetone, 288.15 K
recorded metric: solubility (mole fraction)

Q: // query solubility (mole fraction) value for entry Cc1cccc(C(=O)O)c1[N+](=O)[O-]
Result: 0.0277

====

- measurement setup: in ethyl acetate, 283.15 K
recorded metric: solubility (mole fraction)
Answers are plain numbers.

Q: Need solubility (mole fraction) of Cc1cccc(C(=O)O)c1[N+](=O)[O-] , thanks.
Result: 0.00907

====

- measurement setup: in 1,4-dioxane, 293.15 K
recorded metric: solubility (mole fraction)
One number for each entry.

Q: Request the reported solubility (mole fraction) associated with Cc1cccc(C(=O)O)c1[N+](=O)[O-]
Result: 0.0346

====

- measurement setup: in n-propanol, 308.15 K
recorded metric: solubility (mole fraction)
Numbers only.

Q: solubility (mole fraction) for Cc1cccc(C(=O)O)c1[N+](=O)[O-] ?
Result: 0.0151

====

- measurement setup: in isopropanol, 308.15 K
recorded metric: solubility (mole fraction)

Q: // lookup solubility (mole fraction) for Cc1cccc(C(=O)O)c1[N+](=O)[O-]
Result: 0.0175

====

- measurement setup: in acetone, 290.65 K
recorded metric: solubility (mole fraction)
Give bare numbers.

Q: Any idea what its solubility (mole fraction) is? The compound is Cc1cccc(C(=O)O)c1[N+](=O)[O-]
Result: 0.0291

====

- measurement setup: in 1,4-dioxane, 305.65 K
recorded metric: solubility (mole fraction)
One number for each entry.

Q: Fill in: solubility (mole fraction) of Cc1cccc(C(=O)O)c1[N+](=O)[O-] is ___
Result: 0.0483

====

- measurement setup: in methanol, 295.65 K
recorded metric: solubility (mole fraction)
Answers are plain numbers.

Q: Item Cc1cccc(C(=O)O)c1[N+](=O)[O-] has what recorded solubility (mole fraction)?
Result: 0.0138

====

- measurement setup: in NMP, 290.65 K
recorded metric: solubility (mole fraction)
One number for each entry.

Q: Query (compound): Cc1cccc(C(=O)O)c1[N+](=O)[O-] ; field requested: solubility (mole fraction)
Result: 0.0168

====

- measurement setup: in ethyl acetate, 313.15 K
recorded metric: solubility (mole fraction)
Give bare numbers.

Q: Name the recorded solubility (mole fraction) for Cc1cccc(C(=O)O)c1[N+](=O)[O-] .
Result: 0.018

====

- measurement setup: in acetonitrile, 308.15 K
recorded metric: solubility (mole fraction)

Q: Report solubility (mole fraction) for Cc1cccc(C(=O)O)c1[N+](=O)[O-] please.
Result: 0.00984

====

- measurement setup: in NMP, 305.65 K
recorded metric: solubility (mole fraction)
One number for each entry.

Q: Item under review: Cc1cccc(C(=O)O)c1[N+](=O)[O-] . Reported solubility (mole fraction)?
Result: 0.0273

====

- measurement setup: in acetonitrile, 313.15 K
recorded metric: solubility (mole fraction)
One number for each entry.

Q: What value of measured solubility (mole fraction) is listed for Cc1cccc(C(=O)O)c1[N+](=O)[O-] ?
Result: 0.0113

====

- measurement setup: in isopropanol, 310.65 K
recorded metric: solubility (mole fraction)
Answers are plain numbers.

Q: Returns the measured solubility (mole fraction) for the input molecule. Input: Cc1cccc(C(=O)O)c1[N+](=O)[O-]
Result: 0.0186

====

- measurement setup: in NMP, 318.15 K
recorded metric: solubility (mole fraction)

Q: Recorded solubility (mole fraction) of Cc1cccc(C(=O)O)c1[N+](=O)[O-] , please.
Result: 0.0405

====

- measurement setup: in methanol, 303.15 K
recorded metric: solubility (mole fraction)
Answers are plain numbers.

Q: Consider the molecule Cc1cccc(C(=O)O)c1[N+](=O)[O-] and give its measured solubility (mole fraction).
Result: 0.0171

====

- measurement setup: in 1,4-dioxane, 315.65 K
recorded metric: solubility (mole fraction)
One number for each entry.

Q: Need solubility (mole fraction), item Cc1cccc(C(=O)O)c1[N+](=O)[O-]
Result: 0.0609

====

- measurement setup: in acetonitrile, 288.15 K
recorded metric: solubility (mole fraction)
Give bare numbers.

Q: Looking for the measured solubility (mole fraction) of Cc1cccc(C(=O)O)c1[N+](=O)[O-] , can you help?
Result: 0.00543

====

- measurement setup: in ethyl acetate, 293.15 K
recorded metric: solubility (mole fraction)
Give bare numbers.

Q: Quick one: solubility (mole fraction) for Cc1cccc(C(=O)O)c1[N+](=O)[O-] ?
Result: 0.0115
